Here the recorded JNK1 gene expression is given for each entry.
Tested on: genes regulating the NF-κB pathway in human umbilical vein endothelial cells (HUVEC)
ASSAY TEXT: NF-κB pathway-specific gene expression microarray in HUVEC treated with PR peptides
Type: cell-based
CONDITION PARAMETERS: HUVEC, PR peptides 1 μM, 8 hours, relative to untreated controls
Ends that are not written are not given here.
VALUE TYPE: JNK1 gene expression (fold change)

RRRPRPPELPR [Peptide E8] ... −1.2
RARPRPPYLPR [Peptide A2] ... −1.5
ARRPRPPYLPR [Peptide A1] ... −1.1
ARRPRPPELPR [Peptide A1E8] ... −1.5
RKRPRPPYLPR [Peptide K2] ... −3.1
RRAPRPPYLPR [Peptide A3] ... −2.6
KRRPRPPELPR [Peptide K1E8] ... −2.2
RRRPRPPELPRW [Peptide E8W12] ... −1.8
KKKPRPPYLPR [KKK] ... −2.5

###

System: genes regulating the NF-κB pathway in human umbilical vein endothelial cells (HUVEC)
ASSAY TEXT: NF-κB pathway-specific gene expression microarray in HUVEC treated with PR peptides
Assay type: cell-based
CONDITION PARAMETERS: HUVEC, PR peptides 1 μM, 8 hours, relative to untreated controls
Ends that are not written are not given here.
VALUE TYPE: MEKK1 gene expression (fold change)

RRRPRPPELPR [Peptide E8] ... −1.0
ARRPRPPELPR [Peptide A1E8] ... −0.8
RRRPRPPELPRW [Peptide E8W12] ... −1.7
ARRPRPPYLPR [Peptide A1] ... −1.0
KRRPRPPELPR [Peptide K1E8] ... −1.4
RRKPRPPYLPR [Peptide K3] ... −3.2
RRAPRPPYLPR [Peptide A3] ... −1.9
RARPRPPYLPR [Peptide A2] ... −1.8
KKKPRPPYLPR [KKK] ... −2.0

###

STUDY SYSTEM: Mammalian (Human) 20s Proteasome (Homo sapiens, UniProt P25788)
Construct: purchased Boston Biochem (Cambridge, Mass.)
ASSAY TEXT: Chymotrypsin-like (ChT-L) peptidase activity of 20S proteasome, N-succinyl-LLVY-AMC substrate
Type: biochemical
CONDITION PARAMETERS: I50, chymotrypsin-like activity, 15-minute pre-incubation, 1 hour at 37° C., pH 7.5, 0.03% SDS
Ends that are not written are not given here.
VALUE TYPE: IC50

AAAPRPPYLPR [AAA, reference compound] ... > 100 µM

###

Test system: genes regulating the NF-κB pathway in human umbilical vein endothelial cells (HUVEC)
ASSAY TEXT: NF-κB pathway-specific gene expression microarray in HUVEC treated with PR peptides
Type: cell-based
CONDITION PARAMETERS: HUVEC, PR peptides 1 μM, 8 hours, relative to untreated controls
Ends that are not written are not given here.
Here the recorded MEKK2 gene expression is given for each entry.
VALUE TYPE: MEKK2 gene expression (fold change)

RRRPRPPELPR [Peptide E8] ... −1.3
ARRPRPPYLPR [Peptide A1] ... −1.2
KKKPRPPYLPR [KKK] ... −1.5
ARRPRPPELPR [Peptide A1E8] ... −1.2
RRRPRPPELPRW [Peptide E8W12] ... −1.1
RKRPRPPYLPR [Peptide K2] ... −1.7
RARPRPPYLPR [Peptide A2] ... −0.9

Cited source for all entries: patent US8030446B2
